# Tested on: K4 kissing-loop RNA reporter;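 further: bound reporter read as fluorescence of individual clusters on recovered sequencing chips by microscopy, with normalized cluster intensities fitted with a binding model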
# METHOD: apparent KD of K4 kissing-loop reporter; higher = weaker reporter binding
# MEASUREMENT_PARAMETERS: Eterna round: R107; input ligand: tryptophan 2.4 mM
MEASURE: apparent KD of K4 kissing-loop reporter
Provide the measurement as a number trailed by its unit.

Please review the following examples before continuing.
AAUAAAAUCACGGCCGCCACUGAUACUAAUAUUAGCAGUGAUGUUGCUAUGUAUAAUUUAUUAAACAGGACCGGGUGAAUAUUUA [JR_ExcTryptoB_Sub015] = 114 nM
UAGCGGUAGAGGCCACCGCUAUUCUGAGAAGGAGCGCAGAUGACUGCAGGUAGGUCGCUUAGAGCUUGCAGUGAUGUUGCAAGUU [Tebete] = 131 nM
CGUUUAUAGCAGGAUACCAGUACGGAUAAAGUACGUUAAUAGUAGAGUGAUGUUCUAAAGUACCCUUGGCAGCUUAGAGUGAGUG [ExTheophylB.O] = 78.1 nM
AAAUAGCAGCAACGAGUGAUGUUCGACGAUACCAGCCUCGAUAGAGGCCCUUGGCAGCGUAAAUGAUCACAAAGCCAAGGGCUGC [#SwitchBubble 2] = 397 nM
UAUUUAAAUAAAAUAAAAUAAAUUGCUGAUACCAGAGCCAAUUGGCUCCCUUGGCAGCGGAUCGAGUGAUGUUCGUAAAAUUUAU [AK2 SS Theophylline A] = 30.3 nM
UUCCUCAUGGUAGUGAUGUUGCCGCCCGAUACCAGUCGACGUAUUGACCCUUGGCAGCGGAUCAAGUCCGAUUAAUUUUUUGGUC [theeternabot_sameState_KL_Theo_A_5] = 196 nM

What reported apparent KD of K4 kissing-loop reporter corresponds to UGGUUAAGCAGUGAUGUUGCAAGUGAUGAUACCAGUUAAGAAGAGAACCCUUGGCAGCAUAAAGUGCGCUCUGAUGAGUGUGCUU [whbob_SS_Theo_A_w55] on K4 kissing-loop RNA reporter?
165 nM

---

Entries and their apparent KD of MS2 coat protein values follow.
# Tested on: MS2 coat protein
# METHOD: apparent KD of MS2 coat protein; higher = weaker reporter binding
# MEASUREMENT_PARAMETERS: Eterna round: R107; input ligand: arginine 13.2 mM
State just the number; it will be interpreted in nM.

Use these answered entries as a reference point.
AAGACGGUCGGAAGGAGCGGUACAUGAGGAUCACCCAUGUAUUCCUGGGCAUCCGUAGUGUGCCAGGUAGGUCGCCGAUUGCGGG [XArg-B13] = 40.3
CCUCGUGCAACAUGAGGAUCACCCAUGUACCGAGGACCGGUACGGCCGCCACUCGAAAACGAGUACCAUUAGCGAAAGCUGAUGG [Trp A SS mod1] = 11.9

For the sequence shown here, AACAUGAGGAUCACCCAUGUCAUGUUGGAUACCAGCCAAUAAUAAGGCCCUUGGCAGCUAUAGAUCGAUGAUCCAUGAGGAUCAC [Exclusion Theophylline A] , give the reported apparent KD of MS2 coat protein.
27.6

Also, ACGAUAGGACAUGAGGAUCACCCAUGUGAUACCAGCCUGGAAACAGGCCCUUGGCAGCACAAAUACUCCAGAAACCUAUCGAAUA [TheoAX2 #MicroSwitchBubble] please.
124

Input GCAACGCUGUCGGCCGCCACUUUUACAUUGGCCGUGCUGUCUCUACAUGAGGAUCACCCAUGUGGAAGGACCGGGACAGCACACU [Arzaleer]
21.2

Item: ACAUUGCGCACGGCCGCCACUGGCUAUAGAUUUAUAGCAUUAAUGAACAUGAGGAUCACCCAUGUCAGGACCGGGUGCGAACCAU [SSTryp B #9]
14

---

# Test system: MS2 coat protein
# METHOD: apparent KD of MS2 coat protein; designed switch direction (-1 OFF switch, 1 ON switch): -1; higher = weaker reporter binding
# MEASUREMENT_PARAMETERS: input ligand: FMN 200 uM
Measured apparent KD of MS2 coat protein, listed per entry.
Please respond with the number in nM and leave the unit unwritten.

GCAGUGUGAGUUAGGAUAUGAUGAUUUUUUAUUGGUCAGAAGGAACUUGAGGAUCACCCAAGUUAGGAAUUGGU [JR_BMEx4_Sub075] (Eterna round: R97, puzzle: Brourd's mod of Exclusion 4) = 40.3

--- query ---
Given the entry CUCCGGCGUGUAGGAUAUGGAUCCGAUUAGGAUCCAGAAGGACAUGAGGAUCACCCAUGUACAUGUAAACGGUCGUCACCGGGC [salish99_ExNG1_r04_207] (Eterna round: R96, puzzle: Exclusion NG 1) , report its measured apparent KD of MS2 coat protein.
134

---

# Test system: MS2 coat protein
# METHOD: apparent KD of MS2 coat protein; designed switch direction (-1 OFF switch, 1 ON switch): 1; higher = weaker reporter binding
# MEASUREMENT_PARAMETERS: input ligand: microRNA oligo, concentration not stated
MEASURE: apparent KD of MS2 coat protein

The following sequences have reported results that may help.
GUAGCAUACCGAGGAUAUUCAUAAUACAUGAGGAUCACCCAUGUUAAUAAUAGGCGAAAGCCUUGGGAGAAGGCGGAAUGCUAC [Xeonanis - 20 Mod69] (Eterna round: R96, puzzle: Same State NG 2) = 0.00905 µM
UUAGAAUACGCAGGAUAUCGAUGAUUGAUAGUACGAGAAGGGCGAACAUGAGGAUCACCCAUGUAUAUUAAUUUGAGUUUGAAU [JR_SSNG1_Sub076] (Eterna round: R96, puzzle: Same State NG 1) = 0.12 µM
AAAGGAUGAUUAUACAUGAGGAUCACCCAUGUAAGUUAUACUAAGGAUAUGUGACUUAAUAGUUUACAGAAGGUAGGUUCAUGA [AK SSNG3-V2-2] (Eterna round: R96, puzzle: Same State NG 3) = 0.0693 µM
ACAUGAGAGUGAGGAUAUAUUGUACCUACAUGUGACAUGAGGAUCACCCAUGUGGUAAGUAUGACAUAGAAGGCACAGAUAUGU [Equivalance 80 - Jieux - Same State NG 2] (Eterna round: R96, puzzle: Same State NG 2) = 0.0452 µM
UUAGUCAUGUAAGGAUAUGCAGCCGAAACGGCUGCAGAAGGUACUAUAAUUACAUGAGGAUCACCCAUGUUAUAAAAUAAAUAU [Mat - Same State NG 1 - JL mod - D63] (Eterna round: R96, puzzle: Same State NG 1) = 0.0256 µM
AUACAUAUCAGAGGAUAUCACGUCGUUUAGACGUGAGAAGGCUGAUCACACAUGAAUAUUAAUACAUGAGGAUCACCCAUGUAU [SSNG1/14-A3] (Eterna round: R96, puzzle: Same State NG 1) = 0.0134 µM
UUUCGAUAGAUAGGAUAUCACCUUACAUGAGGAUCACCCAUGUUGGCCGUGCUGGUUAUUCAUACUGAGAAGGAUCUUGAUGAC [JR_SSNG2_Sub004] (Eterna round: R96, puzzle: Same State NG 2) = 0.037 µM
UAUUGUUCCUGAGGAUAUCAGUUGUUUGCAUUAUGAGAAGGCAGUACAUGAGGAUCACCCAUGUUGGGAUUUGAUAGAAUGAUA [JR_SSNG1_Sub007] (Eterna round: R96, puzzle: Same State NG 1) = 0.133 µM
GAGAGAGGGUGAGGAUAUUUAGUGAUAAUGAUGGGAGAAGGCACAGACAUGAGGAUCACCCAUGUGGGAAUAAUCCAGAGAGAG [Parity 10 - Jieux - Same State NG 1] (Eterna round: R96, puzzle: Same State NG 1) = 0.0927 µM
GUAGCAUACCGAGGAUAUUCAUAACAUGAGGAUCACCCAUGUUAGGCCAGCAUUAGCUGGCCUUGGGAGAAGGCGGAAUGCUAC [Xeonanis - 20 Mod52] (Eterna round: R96, puzzle: Same State NG 2) = 0.0145 µM

Below: the item to evaluate.
Form field - read-out: apparent KD of MS2 coat protein; system: MS2 coat protein; submitted item: UGACACACGGCAGGAUAUCGUUAGCAAAGCUAACGAGAAGGGCCUCAUGUCGUGGAAACGUGACAUGAGGAUCACCCAUGUUGC [Omei SS(NG)1 Cv10] (Eterna round: R96, puzzle: Same State NG 1)
0.0124 µM

---

# Tested on: MS2 coat protein
# METHOD: apparent KD of MS2 coat protein; designed switch direction (-1 OFF switch, 1 ON switch): -1; higher = weaker reporter binding
# MEASUREMENT_PARAMETERS: input ligand: microRNA oligo, concentration not stated
MEASURE: apparent KD of MS2 coat protein (µM)
Quick note: give the figure in µM, leave out the unit.

The examples below pair each entry with its known result.
GCACGGAGUGUAGGAUAUCUGUGCGAUUAGCUCAGAGAAGGACACAUGAGGAUCACCCAUGUUACCUCAAUUAGCCUUCCGUGC [Eli exng1 - 032] (Eterna round: R96, puzzle: Exclusion NG 1) = 0.017
AAGAAACAUGAGGAUCACCCAUGUGAGGAUAUGUAAAAGAAAAGAAAAUAAAGAAGAAACAGAAGGCACAAAGG [Mat - Mod of Hog D21] (Eterna round: R96, puzzle: Exclusion 1) = 0.0309
AGUAACCGUCACGAAAGUGAUGGUUACACAAGCAAAUGUACAUGAGGAUCACCCAUGUCCUCAUUUGUUCGUCUUAU [Sensor 3 - 47] (Eterna round: R96, puzzle: Sensor v3, turn-off variant 2) = 0.305

Param item = UCGCUCCGUGUAGGAUAUCGCCGUUCUAUUCGGCGAGAAGGACAUGAGGAUCACCCAUGUAUGUUAUUAUCACGCGUGGCGCGC [Design 56] (Eterna round: R96, puzzle: Exclusion NG 1) ; retrieve measured apparent KD of MS2 coat protein.
0.00879

Same read-out for AACGGUGGGUAGGAUAUCCGGUUCUAGUUGCCAGGAGAAGGGCCCACAUGAGGAUCACCCAUGUGGGUGGGCUC [Maesri] (Eterna round: R96, puzzle: Exclusion 6) ?
0.0431
